B1: glmS ribozyme (parent)
chain: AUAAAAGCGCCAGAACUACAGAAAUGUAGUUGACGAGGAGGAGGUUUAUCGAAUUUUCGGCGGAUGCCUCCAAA

Variants of: B1
Protocol summary: self-cleavage kobs at 160 uM GlcN6P; higher = faster cleavage; RNA array
Setup conditions: with glucosamine-6-phosphate
Fewer inactive variants are shown than the library holds.
Attribute measured: self-cleavage kobs at 160 uM GlcN6P (s⁻¹)
Give bare numbers, in s⁻¹.

The cases that follow already have their self-cleavage kobs at 160 uM GlcN6P on record.
| Changes | self-cleavage kobs at 160 uM GlcN6P, s⁻¹ |
| --- | --- |
| G13C U31C | 0.000104 |
| A39C U47A | 0.000179 |
| C50G C70A | 0.000173 |

Next up:
self-cleavage kobs at 160 uM GlcN6P reported for this variant C16U G40C : 0.000291
